- System: β-catenin-dependent Wnt-pathway
- experiment.description: TopFlash luciferase reporter assay, CHIR99021-stimulated, HCC1395
- Format: cell-based
- condition: Homo sapiens, HCC1395, HCC1395; stimulation with CHIR99021 (GSK3β inhibitor); read-out: HCC1395 TopFlash Efficacy
Overview of reported Emax across a group of compounds:
assay.endpoint: Emax (%)

• Cc1ccc(CNc2ncnc3ccccc23)cc1 [Compound 9f, N-(4-methyl)quinazolin-4-amine] = 51.6
• Fc1ccc(CNc2ncnc3sccc23)cc1 [Compound 4g] = 78.6
• Clc1ccc(CNc2ncnc3sccc23)cc1 [Compound 4j] = 74.6
• CC(Nc1ncnc2ccccc12)c1ccc(F)cc1 (centres unmarked) [Compound 9h] = 66.4
• COc1cccc(CNc2ncnc3sccc23)c1 [Compound 4c] = 58.6
• Clc1cccc(CNc2ncnc3sccc23)c1 [Compound 4i] = 56.2
• Clc1ccccc1CCNc1ncnc2sccc12 [Compound 5k] = 93.2
• CC(Nc1ncnc2sccc12)c1ccc(F)cc1 (centres unmarked) [Compound 5c] = 46.9
• Cc1ccc(C(C)Nc2ncnc3ccccc23)cc1 (centres unmarked) [Compound 9i, N-(1-(p-tolyl)ethyl)quinazolin-4-amine] = 54.6
• Cc1cccc(CNc2ncnc3sccc23)c1 [Compound 4n] = 52.9
• CC(Nc1ncnc2sccc12)c1ccc(Cl)cc1 (centres unmarked) [Compound 5d] = 55.4
• Clc1cccc(CCNc2ncnc3sccc23)c1 [Compound 5l] = 77.5
• Clc1ccc(CCNc2ncnc3sccc23)cc1 [Compound 5m] = 82
• c1ccc(CNc2ncnc3sccc23)cc1 [Compound 4a, N-benzylthieno[2,3-d]pyrimidin-4-amine] = 72
• Cc1ccc(C(C)Nc2ncnc3sccc23)cc1 (centres unmarked) [Compound 5e] = 47
• COc1cccc(CNc2cc(Cl)ncn2)c1 [Compound 11] = 100
• COc1cc(CNc2ncnc3sccc23)ccc1F [Compound 4p] = 71.4
• CN(CCc1ccccc1)c1ncnc2sccc12 [Compound 5j] = 100
• Cc1ccc(CNc2ncnc3sccc23)cc1 [Compound 4o] = 72.7
• COc1cccc(CNc2ncnc3ccccc23)c1 [Compound 9b, N-(3-methoxybenzyl)quinazolin-4-amine] = 82.6
• c1ccc(CCNc2ncnc3sccc23)cc1 [Compound 5g] = 89
• COc1ccccc1CNc1ncnc2sccc12 [Compound 4b] = 40.7
• COc1ccccc1C(C)Nc1ncnc2sccc12 (centres unmarked) [Compound 5a] = 46.1
• COc1cc(CNc2ncnc3sccc23)ccc1Cl [Compound 4q] = 68.5
• Fc1ccc(CNc2ncnc3ccccc23)cc1 [Compound 9d, N-(4-fluoro)quinazolin-4-amine] = 87.1
• COc1ccc(CNc2ncnc3ccccc23)cc1 [Compound 9c, N-(4-methoxybenzyl)quinazolin-4-amine] = 81.5

----------
- Tested on: HCC1395 TNBC cell line
- experiment.description: MTT survival assay HCC1395
- Assay type: cell-based
- condition: Homo sapiens, HCC1395; MTT; Figure 3B heatmap and text; read-out: IC50, μM (HCC1395)
assay.endpoint: IC50

* c1ccc(CCCNc2ncnc3sccc23)cc1 [Compound 5h] | > 50 µM

----------
- Test system: HCC1395 cells
- experiment.description: in vitro
- condition: human
- Excerpt: The simplicity of the scaffold combined with synthetic accessibility allows building a library of compounds and performing structure activity relationship (SAR) studies of the three main parts of the molecule: the top part, the linker and the core (Figure 2). The synthesized compounds were used to explore SAR of three defined areas of investigation (Figure 2). […] Both inhibition of β-catenin signaling measured by the TopFlash reporter and cytotoxicity measured by the Renilla reporter were assessed. […]
pIC50: −log10 of the molar value.
assay.endpoint: pIC50

* COc1cccc(CNc2ncnc3sccc23)c1 [Compound 4c] | < 4.00

----------
- System: β-catenin-dependent Wnt-pathway
- experiment.description: TopFlash luciferase reporter assay, CHIR99021-stimulated, HCC1395
- Type: cell-based
- condition: Homo sapiens; HCC1395; stimulation with CHIR99021 (GSK3β inhibitor); read-out: HCC1395 TopFlash IC50
pIC50: −log10 of the molar value.
assay.endpoint: pIC50

• Clc1ccc(CNc2ncnc3ccccc23)cc1 = 5.66

----------
Overview of reported fold improvement in the activity compared to 4a across a group of molecules:
- Test system: β-catenin-dependent Wnt-pathway
- experiment.description: TopFlash luciferase reporter assay, CHIR99021-stimulated, HCC1395
- Format: cell-based
- condition: TopFlash IC50 vs 4a
assay.endpoint: fold improvement in the activity compared to 4a (fold)

* COc1ccccc1CNc1ncnc2sccc12 | 3
* Cc1ccc(CNc2ncnc3sccc23)cc1 | 2
* Clc1ccc(CNc2ncnc3sccc23)cc1 | 2
* Fc1ccc(CNc2ncnc3sccc23)cc1 | 2

----------
- experiment.description: Cytotoxicity by Renilla luciferase under CMV promoter
- condition: human
assay.endpoint: IC50

* Clc1ccc(CCNc2ncnc3ccccc23)cc1 | 13 µM
* Clc1ccc(CNc2ncnc3ccccc23)cc1 | > 50 µM
* c1ccc(CNc2ncnc3sccc23)cc1 [Compound 4a, N-benzylthieno[2,3-d]pyrimidin-4-amine] | > 50 µM
* COc1ccc(CNc2ncnc3ccccc23)cc1 | > 50 µM

Data provenance: paper PMC9649909
